system.tested: PI3K (p110δ/p85α) (Homo sapiens, UniProt O00329)
Sequence (O00329 whole entry): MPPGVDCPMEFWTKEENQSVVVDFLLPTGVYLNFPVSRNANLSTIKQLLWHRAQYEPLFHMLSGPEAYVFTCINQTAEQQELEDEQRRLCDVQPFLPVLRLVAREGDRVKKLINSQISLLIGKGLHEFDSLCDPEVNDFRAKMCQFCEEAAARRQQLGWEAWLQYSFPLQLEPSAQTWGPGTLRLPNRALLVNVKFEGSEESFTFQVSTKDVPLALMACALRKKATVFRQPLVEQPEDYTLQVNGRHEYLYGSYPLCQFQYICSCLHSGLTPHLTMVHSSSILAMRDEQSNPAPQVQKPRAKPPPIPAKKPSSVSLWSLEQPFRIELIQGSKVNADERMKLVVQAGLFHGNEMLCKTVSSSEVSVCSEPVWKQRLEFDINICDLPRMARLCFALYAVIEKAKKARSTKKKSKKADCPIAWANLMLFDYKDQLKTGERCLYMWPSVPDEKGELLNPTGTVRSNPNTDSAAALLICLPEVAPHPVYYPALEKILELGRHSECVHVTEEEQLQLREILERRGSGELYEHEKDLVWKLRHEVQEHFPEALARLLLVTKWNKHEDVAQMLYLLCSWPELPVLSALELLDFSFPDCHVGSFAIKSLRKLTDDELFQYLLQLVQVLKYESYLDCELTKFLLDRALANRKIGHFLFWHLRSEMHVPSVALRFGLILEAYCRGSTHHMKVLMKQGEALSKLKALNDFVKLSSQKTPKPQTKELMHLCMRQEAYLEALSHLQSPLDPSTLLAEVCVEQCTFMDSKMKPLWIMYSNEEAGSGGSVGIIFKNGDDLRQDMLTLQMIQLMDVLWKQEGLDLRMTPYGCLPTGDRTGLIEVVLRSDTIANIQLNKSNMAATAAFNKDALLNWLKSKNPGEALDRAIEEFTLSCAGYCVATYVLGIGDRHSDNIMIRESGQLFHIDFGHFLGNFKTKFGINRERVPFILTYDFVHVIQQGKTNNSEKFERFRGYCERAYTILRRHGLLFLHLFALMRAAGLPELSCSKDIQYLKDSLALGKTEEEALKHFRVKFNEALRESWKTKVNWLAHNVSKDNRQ
Sequence (P27986 whole entry partner): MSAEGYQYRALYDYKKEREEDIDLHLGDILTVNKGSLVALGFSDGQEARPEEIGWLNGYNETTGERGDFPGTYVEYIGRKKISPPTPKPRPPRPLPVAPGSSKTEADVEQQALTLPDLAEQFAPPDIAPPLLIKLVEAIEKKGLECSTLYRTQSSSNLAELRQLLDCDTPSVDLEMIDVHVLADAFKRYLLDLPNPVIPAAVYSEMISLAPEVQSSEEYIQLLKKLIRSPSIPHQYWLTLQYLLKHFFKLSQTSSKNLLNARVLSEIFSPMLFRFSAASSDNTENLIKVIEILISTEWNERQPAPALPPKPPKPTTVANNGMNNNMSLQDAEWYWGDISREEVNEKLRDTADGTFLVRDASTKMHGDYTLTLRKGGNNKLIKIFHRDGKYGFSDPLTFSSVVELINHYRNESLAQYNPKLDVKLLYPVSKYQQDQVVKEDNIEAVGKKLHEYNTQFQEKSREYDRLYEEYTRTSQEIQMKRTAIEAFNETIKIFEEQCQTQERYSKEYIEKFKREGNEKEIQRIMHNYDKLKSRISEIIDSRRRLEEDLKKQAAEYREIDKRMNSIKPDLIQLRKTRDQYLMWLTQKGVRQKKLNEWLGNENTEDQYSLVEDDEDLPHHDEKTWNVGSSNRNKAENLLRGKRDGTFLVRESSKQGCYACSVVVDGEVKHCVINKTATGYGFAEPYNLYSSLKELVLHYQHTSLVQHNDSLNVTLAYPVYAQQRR
assay.summary: PI3Kδ assay (ADP-Glo Kinase Assay)
Format: biochemical
protocol.conditions: recombinant enzyme; IC50 (nM) or max inhibition (%) at 0.5 μM
List of IC50 values.
readout: IC50 (nM)

smiles_repr=Cc1nc([C@@H](C)c2cc(Cl)c(F)c(C(=O)N[C@H]3CCCC[C@H]3O)c2OC(C)C)n2ccnc(N)c12 endpoint_value=2.5
smiles_repr=Cc1nc([C@@H](C)c2cc(Cl)c(F)c(C(=O)N[C@@H]3CC[C@@H](O)C3)c2OC(C)C)n2ccnc(N)c12 endpoint_value=0.68
smiles_repr=Cc1nc([C@@H](C)c2cc(Cl)c(F)c(C(=O)NC[C@@H]3CCOC3)c2OC(C)C)n2ccnc(N)c12 endpoint_value=1.3
smiles_repr=CO[C@H]1CCN(C(=O)c2c(F)c(Cl)cc([C@H](C)c3nc(C)c4c(N)nccn34)c2OC(C)C)C1 endpoint_value=1.9
smiles_repr=Cc1nc([C@@H](C)c2cc(Cl)c(F)c(C(=O)N[C@@H]3CCC[C@@H]3O)c2OC(C)C)n2ccnc(N)c12 endpoint_value=9.9
smiles_repr=Cc1nc([C@@H](C)c2cc(Cl)c(F)c(C(=O)N[C@H]3C[C@@H](O)C3)c2OC(C)C)n2ccnc(N)c12 endpoint_value=1.1
smiles_repr=Cc1nc([C@@H](C)c2cc(Cl)c(F)c(C(=O)NCC3CCN(C)CC3)c2OC(C)C)n2ccnc(N)c12 endpoint_value=0.97
smiles_repr=COC[C@@H]1CCCN1C(=O)c1c(F)c(Cl)cc([C@H](C)c2nc(C)c3c(N)nccn23)c1OC(C)C endpoint_value=3.8
smiles_repr=Cc1nc([C@@H](C)c2cc(Cl)c(F)c(C(=O)NC[C@H]3CCOC3)c2OC(C)C)n2ccnc(N)c12 endpoint_value=1.4
smiles_repr=Cc1nc([C@@H](C)c2cc(Cl)c(F)c(C(=O)NCC3(O)COC3)c2OC(C)C)n2ccnc(N)c12 endpoint_value=1.8
smiles_repr=Cc1nc([C@@H](C)c2cc(Cl)c(F)c(C(=O)N3CC4CCC(C3)O4)c2OC(C)C)n2ccnc(N)c12 endpoint_value=1.4
smiles_repr=Cc1nc([C@@H](C)c2cc(Cl)c(F)c(C(=O)N3C[C@@H](C)O[C@@H](C)C3)c2OC(C)C)n2ccnc(N)c12 endpoint_value=8
smiles_repr=Cc1nc([C@@H](C)c2cc(Cl)c(F)c(C(=O)NCCN(C)C)c2OC(C)C)n2ccnc(N)c12 endpoint_value=4
